assay: Stability of linkers L1-L4 conjugated to FGF21 (LC-MS); type: physicochemical; settings: +4° C., 24 hrs
measured_parameter: +(1) H2O (%)
Unit % implied. Number only.

Lab note: measured +(1) H2O of L4-FGF21ΔH-A129C: Linker-4 conjugated to FGF21ΔH-A129C protein (Table 4; Table 5 row L4) (conjugate, UniProt Q9NSA1 29-209, looked up, variant H1* A129C, Linker-4 attached) Fibroblast growth factor 21: PIPDSSPLLQFGGQVRQRYLYTDDAQQTEAHLEIREDGTVGGAADQSPESLLQLKALKPGVIQILGVKTSRFLCQRPDGALYGSLHFDPEACSFRELLLEDGYNVYQSEAHGLPLHLPGNKSPHRDPCPRGPARFLPLPGLPPALPEPPGILAPQPPDVGSSDPLSMVGPSQGRSPSYAS was 27
